Hello, the source for this data is the supplement of paper PMC8728848, in case you need it.

target: Neu5Ac(a2-6)Gal(b1-4)GlcNAc(b1-6)[Gal(b1-3)GlcNAc(b1-3)]Gal(b1-4)Glc; experiment: glycan array binding signal (z-score within array); higher = stronger binding; conditions: glycan notation: IUPAC condensed, linker removed
Shown is part of a subset that was picked to be rich in the strongest signals.
REPORTED_ENDPOINT: glycan array binding signal (z-score)
Answer with the value's number alone.

BINDER	glycan array binding signal (z-score)
SP15308F-bth-333-19-333 (Bacteroides thetaiotaomicron) (protein) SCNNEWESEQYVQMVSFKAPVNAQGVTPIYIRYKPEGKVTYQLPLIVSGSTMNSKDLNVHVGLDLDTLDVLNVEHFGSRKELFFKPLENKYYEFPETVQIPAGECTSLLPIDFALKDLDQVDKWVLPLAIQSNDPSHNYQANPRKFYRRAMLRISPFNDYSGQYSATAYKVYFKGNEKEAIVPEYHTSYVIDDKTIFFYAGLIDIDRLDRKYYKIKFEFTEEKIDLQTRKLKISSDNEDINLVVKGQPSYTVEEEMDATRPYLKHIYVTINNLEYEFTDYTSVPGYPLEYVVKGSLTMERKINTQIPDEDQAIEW	-0.927

### Prompt Given the binder ArathEULS3 (Arabidopsis thaliana), Q945P1 (protein) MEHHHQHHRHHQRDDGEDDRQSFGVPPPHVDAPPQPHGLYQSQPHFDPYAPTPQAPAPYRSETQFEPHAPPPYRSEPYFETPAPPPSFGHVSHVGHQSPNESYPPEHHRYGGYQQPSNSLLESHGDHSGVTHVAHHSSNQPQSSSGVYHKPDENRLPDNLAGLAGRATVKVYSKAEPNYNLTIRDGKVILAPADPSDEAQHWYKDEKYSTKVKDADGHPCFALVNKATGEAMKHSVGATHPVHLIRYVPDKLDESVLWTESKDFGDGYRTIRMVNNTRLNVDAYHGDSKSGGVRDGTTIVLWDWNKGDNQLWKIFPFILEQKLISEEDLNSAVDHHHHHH , what is its reported glycan array binding signal (z-score)?
### Response -0.239
